# Test system: SIK2;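 note: KINOMEscan kinase panel screen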
# Conditions: concentration: 1 μM,replicates: in singlicate; n = 1
%Inh under 2% gets 1 (yes), anything at or over 2% gets 0 (no).

| Molecule | Class Name |
| --- | --- |
| CCNCC(Cc1ccccc1)NC(=O)c1cc(Br)c(-c2ccnc3[nH]ccc23)s1.Cl.Cl (centres unmarked) [GSK1383280] | 1 (yes) |
| CC(=O)Nc1ccc(-c2cc3ncnc(SCC(=O)O)c3s2)cc1 | 0 (no) |
| CC(C(=O)NC1CCN(c2ccnc(Nc3ccc(F)cc3)n2)C1)c1ccc(Cl)cc1 (centres unmarked) [GSK1379713] | 1 (yes) |
| COC(=O)c1cccc(NC(=O)NC2CCN(c3ccnc(NCc4ccc(F)cc4)n3)CC2)c1 [GSK1379860] | 1 (yes) |
| CC(C)S(=O)(=O)N1CCN(Cc2ccc3c(c2)nc(NC(=O)c2ccsc2)n3C[C@H](O)c2ccccc2)CC1 [GW635815] | 0 (no) |
| Cc1cccc2c(-c3ccncc3)c(-c3ccc(F)cc3)nn12.Cl [GW461487] | 1 (yes) |
| COc1cc2c(Nc3ccc(NC(=O)c4ccccc4)cc3)ncnc2cc1OCCCN1CCOCC1 [GSK301329] | 0 (no) |
| CN(c1cccc(CNc2nc(Nc3ccc4c(c3)CC(=O)N4)ncc2C(F)(F)F)c1)S(C)(=O)=O | 0 (no) |
| Cl.Nc1n[nH]c2cc(-c3ccccn3)ccc12 [GSK2189892] | 1 (yes) |
| Cl.Cl.NC[C@H](CC1CCCCC1)NC(=O)c1ccc(-c2ccnc3[nH]ccc23)s1 [GSK1581428] | 0 (no) |
| Cl.c1ccc(Oc2ccc(Nc3ccnc4cc(-c5ccc(CN6CCNCC6)o5)ccc34)cc2)nc1 [GW567142] | 0 (no) |
| c1ccc(Oc2ccc(Nc3ccnc4ccc(-c5ccccn5)cc34)cc2)cc1 [GW407034] | 1 (yes) |
| COC(=O)c1cccc(NC(=O)NC2CCN(c3ccnc(Nc4cc(OC)c(OC)c(OC)c4)n3)C2)c1 (centres unmarked) [GSK1379767] | 0 (no) |
| CCN1CCN(CCCC(=O)Nc2n[nH]c3nc(-c4ccc(O)cc4)c(Br)cc23)CC1 [SB-731579] | 1 (yes) |
| CN1CCN(CCCNc2nccc(-c3c(-c4ccc(F)cc4)nn4cc(C(N)=O)ccc34)n2)CC1 [GW622475] | 0 (no) |
| NC(=O)c1ccc(-c2cc3ncnc(SCC(=O)O)c3s2)cc1 | 0 (no) |
